Let's look at some compounds and their measured %max.
target: Melanocyte-stimulating hormone receptor (Homo sapiens, UniProt Q01726); experiment: Activity against human MC1R by percentage of cAMP accumulation at 10 uM; type: functional
Sequence (Q01726 whole entry, looked up): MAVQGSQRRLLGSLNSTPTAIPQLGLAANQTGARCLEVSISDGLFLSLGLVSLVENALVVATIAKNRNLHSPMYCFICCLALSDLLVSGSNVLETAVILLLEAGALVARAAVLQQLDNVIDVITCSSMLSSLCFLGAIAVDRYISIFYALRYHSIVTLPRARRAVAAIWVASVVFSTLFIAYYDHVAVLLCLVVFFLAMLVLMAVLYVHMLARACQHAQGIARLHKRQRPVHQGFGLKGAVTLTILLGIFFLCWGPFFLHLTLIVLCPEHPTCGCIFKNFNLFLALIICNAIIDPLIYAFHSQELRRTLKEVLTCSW
Reply numerically in %, unit not repeated.

Please review the entries below; each comes with its answer.
- CC(C)N(CC1(C2CCCCC2)CCN(C(=O)[C@@H](Cc2ccc(Cl)cc2)NC(=O)[C@H]2Cc3ccccc3CN2)CC1)S(C)(=O)=O: 39
- C[C@H]1COC(=O)N1CC1(C2CCCCC2)CCN(C(=O)[C@@H](Cc2ccc(Cl)cc2)NC(=O)[C@H]2Cc3ccccc3CN2)CC1: 72
- C[C@@H]1COC(=O)N1CC1(C2CCCCC2)CCN(C(=O)[C@@H](Cc2ccc(Cl)cc2)NC(=O)[C@H]2Cc3ccccc3CN2)CC1: 40
- CC1(C)CCN(CC2(C3CCCCC3)CCN(C(=O)[C@@H](Cc3ccc(Cl)cc3)NC(=O)[C@H]3Cc4ccccc4CN3)CC2)S1(=O)=O: 27
- O=C(N[C@H](Cc1ccc(Cl)cc1)C(=O)N1CCC(Cn2cncn2)(C2CCCCC2)CC1)[C@H]1Cc2ccccc2CN1: 95
- O=C(N[C@H](Cc1ccc(Cl)cc1)C(=O)N1CCC(CN2CCCS2(=O)=O)(C2CCCCC2)CC1)[C@H]1Cc2ccccc2CN1: 41

Now consider a different compound.
Using the record for `O=C(N[C@H](Cc1ccc(Cl)cc1)C(=O)N1CCC(CN2CCNC2=O)(C2CCCCC2)CC1)[C@H]1Cc2ccccc2CN1` , state its measured %max.
39

* * *

target: Melanocortin receptor 4 (Homo sapiens); assay: Displacement of [125I]NDP-alpha-MSH from human MC4R expressed in CHO cells
Sequence (P32245 whole entry): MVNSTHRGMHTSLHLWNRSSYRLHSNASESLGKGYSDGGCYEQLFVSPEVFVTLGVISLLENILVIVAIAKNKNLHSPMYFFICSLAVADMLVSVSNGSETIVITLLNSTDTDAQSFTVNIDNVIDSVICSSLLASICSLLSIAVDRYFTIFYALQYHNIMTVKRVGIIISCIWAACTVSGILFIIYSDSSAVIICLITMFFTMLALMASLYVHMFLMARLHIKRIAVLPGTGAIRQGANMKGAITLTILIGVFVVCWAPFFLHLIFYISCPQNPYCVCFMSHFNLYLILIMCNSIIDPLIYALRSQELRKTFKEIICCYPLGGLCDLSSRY
READOUT_TYPE: log10 IC50 (log10 of the value in nM)
Use the decimal logarithm of IC50 (nM).

Please review the entries below; each comes with its answer.
• CC(C)N(CC1(C2CCCCC2)CCN(C(=O)[C@@H](Cc2ccc(Cl)cc2)NC(=O)[C@H]2Cc3ccccc3CN2)CC1)S(C)(=O)=O = 0.32
• CC1(C)COC(=O)N1CC1(C2CCCCC2)CCN(C(=O)[C@@H](Cc2ccc(Cl)cc2)NC(=O)[C@H]2Cc3ccccc3CN2)CC1 = -0.10
• CC1(C)CCN(CC2(C3CCCCC3)CCN(C(=O)[C@@H](Cc3ccc(Cl)cc3)NC(=O)[C@H]3Cc4ccccc4CN3)CC2)S1(=O)=O = -0.21
• O=C(N[C@H](Cc1ccc(Cl)cc1)C(=O)N1CCC(CN2C(=O)OCC23CC3)(C2CCCCC2)CC1)[C@H]1Cc2ccccc2CN1 = 0.66
• O=C(N[C@H](Cc1ccc(Cl)cc1)C(=O)N1CCC(CN2C(=O)OCC23CCC3)(C2CCCCC2)CC1)[C@H]1Cc2ccccc2CN1 = 0.90

Using the record for `CCOC(=O)N(CC1(C2CCCCC2)CCN(C(=O)[C@@H](Cc2ccc(Cl)cc2)NC(=O)[C@H]2Cc3ccccc3CN2)CC1)C(C)C` , state its measured log10 IC50.
0.91

Using the record for `O=C(N[C@H](Cc1ccc(Cl)cc1)C(=O)N1CCC(CN2CCNC2=O)(C2CCCCC2)CC1)[C@H]1Cc2ccccc2CN1` , state its measured log10 IC50.
0.68

Using the record for `C[C@@H]1COC(=O)N1CC1(C2CCCCC2)CCN(C(=O)[C@@H](Cc2ccc(Cl)cc2)NC(=O)[C@H]2Cc3ccccc3CN2)CC1` , state its measured log10 IC50.
0.11

Using the record for `CN1CCN(CC2(C3CCCCC3)CCN(C(=O)[C@@H](Cc3ccc(Cl)cc3)NC(=O)[C@H]3Cc4ccccc4CN3)CC2)C1=O` , state its measured log10 IC50.
0.63

Using the record for `O=C(N[C@H](Cc1ccc(Cl)cc1)C(=O)N1CCC(CN2CCOC2=O)(C2CCCCC2)CC1)[C@H]1Cc2ccccc2CN1` , state its measured log10 IC50.
0.60

Using the record for `C[C@H]1COC(=O)N1CC1(C2CCCCC2)CCN(C(=O)[C@@H](Cc2ccc(Cl)cc2)NC(=O)[C@H]2Cc3ccccc3CN2)CC1` , state its measured log10 IC50.
0.65

Using the record for `O=C(N[C@H](Cc1ccc(Cl)cc1)C(=O)N1CCC(CN2CCCS2(=O)=O)(C2CCCCC2)CC1)[C@H]1Cc2ccccc2CN1` , state its measured log10 IC50.
-0.04

* * *

target: UniProt P33032; assay: Activity against human MC5R by percentage of cAMP accumulation at 10 uM; assay type: functional
Please assign a class to every record based on measured %max, with ranges A = under 40%, B = from 40% up to 50%, C = 50% and over

• O=C(N[C@H](Cc1ccc(Cl)cc1)C(=O)N1CCC(CN2C(=O)OCC23CCC3)(C2CCCCC2)CC1)[C@H]1Cc2ccccc2CN1 = A

Assign a bin to `CC1(C)COC(=O)N1CC1(C2CCCCC2)CCN(C(=O)[C@@H](Cc2ccc(Cl)cc2)NC(=O)[C@H]2Cc3ccccc3CN2)CC1`
A

Assign a bin to `O=C(N[C@H](Cc1ccc(Cl)cc1)C(=O)N1CCC(Cn2cncn2)(C2CCCCC2)CC1)[C@H]1Cc2ccccc2CN1`
C

Assign a bin to `O=C(N[C@H](Cc1ccc(Cl)cc1)C(=O)N1CCC(CN2CCNC2=O)(C2CCCCC2)CC1)[C@H]1Cc2ccccc2CN1`
B

Assign a bin to `O=C(N[C@H](Cc1ccc(Cl)cc1)C(=O)N1CCC(CN2C(=O)OCC23CC3)(C2CCCCC2)CC1)[C@H]1Cc2ccccc2CN1`
A

Assign a bin to `C[C@H]1COC(=O)N1CC1(C2CCCCC2)CCN(C(=O)[C@@H](Cc2ccc(Cl)cc2)NC(=O)[C@H]2Cc3ccccc3CN2)CC1`
C

Assign a bin to `O=C(N[C@H](Cc1ccc(Cl)cc1)C(=O)N1CCC(CN2CCOC2=O)(C2CCCCC2)CC1)[C@H]1Cc2ccccc2CN1`
B

Assign a bin to `CC(C)N(CC1(C2CCCCC2)CCN(C(=O)[C@@H](Cc2ccc(Cl)cc2)NC(=O)[C@H]2Cc3ccccc3CN2)CC1)S(C)(=O)=O`
B

Assign a bin to `CN1CCN(CC2(C3CCCCC3)CCN(C(=O)[C@@H](Cc3ccc(Cl)cc3)NC(=O)[C@H]3Cc4ccccc4CN3)CC2)C1=O`
C

* * *

Let's look at some compounds and their measured IC50.
molecular target: UniProt:P33032; assay: Displacement of [125I]NDP-alpha-MSH from human MC5R expressed in CHO cells
Reply numerically in nM, unit not repeated.

• CC(C)N(CC1(C2CCCCC2)CCN(C(=O)[C@@H](Cc2ccc(Cl)cc2)NC(=O)[C@H]2Cc3ccccc3CN2)CC1)S(C)(=O)=O = 200

Using the record for `C[C@H]1COC(=O)N1CC1(C2CCCCC2)CCN(C(=O)[C@@H](Cc2ccc(Cl)cc2)NC(=O)[C@H]2Cc3ccccc3CN2)CC1` , state its measured IC50.
220

Using the record for `CN1CCN(CC2(C3CCCCC3)CCN(C(=O)[C@@H](Cc3ccc(Cl)cc3)NC(=O)[C@H]3Cc4ccccc4CN3)CC2)C1=O` , state its measured IC50.
160

Using the record for `C[C@@H]1COC(=O)N1CC1(C2CCCCC2)CCN(C(=O)[C@@H](Cc2ccc(Cl)cc2)NC(=O)[C@H]2Cc3ccccc3CN2)CC1` , state its measured IC50.
110

* * *

target: Melanocyte-stimulating hormone receptor (Homo sapiens, UniProt Q01726); assay: Activity against human MC1R by percentage of cAMP accumulation at 10 uM; type: functional
Let's look at some compounds and their measured %max.

* CC1(C)COC(=O)N1CC1(C2CCCCC2)CCN(C(=O)[C@@H](Cc2ccc(Cl)cc2)NC(=O)[C@H]2Cc3ccccc3CN2)CC1 | 35%
* O=C(N[C@H](Cc1ccc(Cl)cc1)C(=O)N1CCC(CN2CCOC2=O)(C2CCCCC2)CC1)[C@H]1Cc2ccccc2CN1 | 56%
* O=C(N[C@H](Cc1ccc(Cl)cc1)C(=O)N1CCC(CN2C(=O)OCC23CC3)(C2CCCCC2)CC1)[C@H]1Cc2ccccc2CN1 | 48%
* CN1CCN(CC2(C3CCCCC3)CCN(C(=O)[C@@H](Cc3ccc(Cl)cc3)NC(=O)[C@H]3Cc4ccccc4CN3)CC2)C1=O | 43%
* O=C(N[C@H](Cc1ccc(Cl)cc1)C(=O)N1CCC(CN2C(=O)OCC23CCC3)(C2CCCCC2)CC1)[C@H]1Cc2ccccc2CN1 | 25%

Using the record for `CCOC(=O)N(CC1(C2CCCCC2)CCN(C(=O)[C@@H](Cc2ccc(Cl)cc2)NC(=O)[C@H]2Cc3ccccc3CN2)CC1)C(C)C` , state its measured %max.
26%

* * *

target: Melanocortin receptor 5 (Homo sapiens, UniProt P33032); experiment: Displacement of [125I]NDP-alpha-MSH from human MC5R expressed in CHO cells
Sequence (P33032 whole entry): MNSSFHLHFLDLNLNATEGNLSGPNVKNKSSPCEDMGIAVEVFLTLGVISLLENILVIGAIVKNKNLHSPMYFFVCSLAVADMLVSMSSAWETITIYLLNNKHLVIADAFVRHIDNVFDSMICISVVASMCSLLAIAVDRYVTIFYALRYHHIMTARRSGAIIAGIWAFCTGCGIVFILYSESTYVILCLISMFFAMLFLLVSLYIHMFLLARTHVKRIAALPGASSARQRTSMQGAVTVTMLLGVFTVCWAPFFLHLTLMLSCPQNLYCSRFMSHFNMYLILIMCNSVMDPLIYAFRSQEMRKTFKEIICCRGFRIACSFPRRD
READOUT_TYPE: pIC50
Lab note: report pIC50 as minus log10 of the concentration in molar units, number only.

Please review the entries below; each comes with its answer.
• O=C(N[C@H](Cc1ccc(Cl)cc1)C(=O)N1CCC(CN2C(=O)OCC23CCC3)(C2CCCCC2)CC1)[C@H]1Cc2ccccc2CN1 = 6.68
• O=C(N[C@H](Cc1ccc(Cl)cc1)C(=O)N1CCC(CN2CCCS2(=O)=O)(C2CCCCC2)CC1)[C@H]1Cc2ccccc2CN1 = 6.77
• CC1(C)CCN(CC2(C3CCCCC3)CCN(C(=O)[C@@H](Cc3ccc(Cl)cc3)NC(=O)[C@H]3Cc4ccccc4CN3)CC2)S1(=O)=O = 6.72

Using the record for `O=C(N[C@H](Cc1ccc(Cl)cc1)C(=O)N1CCC(CN2CCNC2=O)(C2CCCCC2)CC1)[C@H]1Cc2ccccc2CN1` , state its measured pIC50.
6.82
